Macrophage migration inhibitory factor (Homo sapiens) pIC50, compiled from various sources.
pIC50: −log10 of the molar value.

INSERT INTO results (query_smiles, assay_value) VALUES
  ('N#Cc1c(NC2CN(C(=O)c3ccncc3)C2)c2ccccc2n(Cc2ccc(F)cc2)c1=O', '≥ 6.00'),
  ('Cn1c(=O)c(C#N)c(NC2CCN(C(=O)c3cccs3)CC2)c2ccccc21', '≥ 6.00'),
  ('Cn1c(=O)c(C#N)c(N2CCC(C(=O)O)CC2)c2ccccc21', '< 3.70'),
  ('Cn1c(=O)c(C#N)c(N2CCC(C(=O)NCCO)CC2)c2ccccc21', '< 3.70'),
  ('C=CC(=O)N1CC(Nc2c(C#N)c(=O)n(CCOCC)c3ccccc23)C1', '< 4.00'),
  ('CC(=O)N=C1C(C)=CC(=O)C=C1C', 3.70),
  ('COC1=CC(=NC(C)=O)C=CC1=O', 4.60),
  ('Cn1c(=O)c(C#N)c(N2CC(C(=O)NCc3ccncc3)C2)c2ccccc21', '≥ 5.00'),
  ('CC(=O)Nc1ccc(O)c(O)c1', 3.30),
  ('Cn1c(=O)c(C#N)c(NC2CN(S(C)(=O)=O)C2)c2ccccc21', '4.00 to 5.00');

Fill in pIC50 for Cn1c(=O)c(C#N)c(NC2CN(C(=O)c3cccs3)C2)c2ccccc21 tested with Macrophage migration inhibitory factor (Homo sapiens).
≥ 6.00

Fill in pIC50 for N#Cc1c(NC2CCN(C(=O)c3cccs3)CC2)c2ccccc2n(Cc2ccc(F)cc2)c1=O tested with Macrophage migration inhibitory factor (Homo sapiens).
≥ 5.00

Fill in pIC50 for N#Cc1c(N2CC(C(=O)c3cccs3)C2)c2ccccc2n(Cc2ccc(F)cc2)c1=O tested with Macrophage migration inhibitory factor (Homo sapiens).
3.70 to 4.00

Fill in pIC50 for CN(C)C(=O)C1CCN(c2c(C#N)c(=O)n(C)c3ccccc23)CC1 tested with Macrophage migration inhibitory factor (Homo sapiens).
< 3.70

Fill in pIC50 for Cn1c(=O)c(C#N)c(N2CCC(C(=O)Nc3nccs3)CC2)c2ccccc21 tested with Macrophage migration inhibitory factor (Homo sapiens).
≥ 5.00

Fill in pIC50 for C=CC(=O)N1CCC(Nc2c(C#N)c(=O)n(C)c3ccccc23)CC1 tested with Macrophage migration inhibitory factor (Homo sapiens).
< 4.00

Fill in pIC50 for CC(=O)N=C1C=C(C)C(=O)C(C)=C1 tested with Macrophage migration inhibitory factor (Homo sapiens).
3.92

Fill in pIC50 for N#Cc1c(NC2CN(C(=O)c3cncnc3)C2)c2ccccc2n(Cc2ccc(F)cc2)c1=O tested with Macrophage migration inhibitory factor (Homo sapiens).
4.00 to 5.00

Fill in pIC50 for CC(=O)N=C1C=CC(=O)C(C)=C1 tested with Macrophage migration inhibitory factor (Homo sapiens).
4.46
